The values you see were collected from the supplement of paper PMC6555819.

# Tested on: PPARg:RXRa DBDmut IVT, anti-RXR (DBD mutation: RXRa K156A/R161A, NR concentration 270 nM, RXRa partner concentration 90 nM)
# Method Description: PBM binding z-score (relative to random genomic background probes); higher = stronger binding; sequences stand for … in GC…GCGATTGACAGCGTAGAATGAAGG
Given measured PBM binding z-score, output yes (1) if it is greater than or equal to 3 and no (0) if not.

Known results for sequences:
# Ordered Residues, Class Label
measured = [
    ("CAAACTAGGCCACCGGAAGGTCAAAGTCCGCATG", "yes (1)"),
    ("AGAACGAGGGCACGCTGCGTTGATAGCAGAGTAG", "yes (1)"),
    ("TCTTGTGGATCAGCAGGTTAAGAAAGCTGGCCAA", "no (0)"),
    ("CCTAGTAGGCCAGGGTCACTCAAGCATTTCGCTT", "yes (1)"),
    ("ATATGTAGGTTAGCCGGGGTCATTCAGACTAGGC", "yes (1)"),
]

Next item in the queue.
Input: Given the entry `TAGCCTAGGTCATTCAGGGGCCAGTCTAGAAAGC` , answer whether its PBM binding z-score meets or surpasses 3.
Output: no (0)

----------
# Test system: RARb homodimer (NR concentration 270 nM)
# Method Description: PBM binding z-score (relative to random genomic background probes); higher = stronger binding; sequences stand for … in GC…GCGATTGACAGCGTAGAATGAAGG
Reported PBM binding z-score values are given for each entry in this list.

Input: Recall and state the measured PBM binding z-score for `TCAGACAGGTGGAGGTAACTCAGGTACGCAGTCG` .
Output: 0.41

----------
# Tested on: RARa homodimer (NR concentration 270 nM)
# Method Description: PBM binding z-score (relative to random genomic background probes); higher = stronger binding; sequences stand for … in GC…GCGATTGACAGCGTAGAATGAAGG
Reported PBM binding z-score values are given for each entry in this list.

# Ordered Residues, Recorded Result
records = [
    ("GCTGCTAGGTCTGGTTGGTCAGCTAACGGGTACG", -0.893),
    ("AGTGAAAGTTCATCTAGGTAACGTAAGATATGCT", 1.4),
    ("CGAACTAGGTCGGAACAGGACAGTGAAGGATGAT", -0.0866),
    ("TCATAGAGGTAAAAGGTGAAAGTCGGTGTGGTAA", 0.918),
    ("GATACAGGGTCAGCTAGAGGACAGAGTATGGAAA", 0.599),
    ("CGTCAAAGTTCAAGGTAACGGAACAGAAAGCAGC", 1.04),
]

Input: Recall and state the measured PBM binding z-score for `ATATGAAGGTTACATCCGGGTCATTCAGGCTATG` .
Output: 0.977

Input: Recall and state the measured PBM binding z-score for `ATCTCTAGGTAAAAATAGTTCAGTGAATGCAAAT` .
Output: 1.51

Input: Recall and state the measured PBM binding z-score for `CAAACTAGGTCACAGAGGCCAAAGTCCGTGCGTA` .
Output: 0.794

----------
Reported PBM binding z-score values are given for each entry in this list.
# Test system: LXRa:RXRa (NR concentration 270 nM, RXRa partner concentration 90 nM)
# Method Description: PBM binding z-score (relative to random genomic background probes); higher = stronger binding; sequences stand for … in GC…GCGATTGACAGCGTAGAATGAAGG
Answer using only a numeral; do not append any unit.

# Ordered Residues, Parameter, Recorded Result
records = [
    ("CGAACTAGGTCATCTAGGACAGTGAATACATTGA", "PBM binding z-score", 2.49),
]

Input: Recall and state the measured PBM binding z-score for `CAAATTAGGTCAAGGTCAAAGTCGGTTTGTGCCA` .
Output: 5.96

Input: Recall and state the measured PBM binding z-score for `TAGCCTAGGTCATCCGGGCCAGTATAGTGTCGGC` .
Output: 3.54

Input: Recall and state the measured PBM binding z-score for `CCTGCTAGGTCATGGTCAGATAATCTACAGTATG` .
Output: 2.5

Input: Recall and state the measured PBM binding z-score for `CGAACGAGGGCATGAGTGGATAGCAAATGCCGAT` .
Output: 0.334

Input: Recall and state the measured PBM binding z-score for `GCTGCTAGGTCCACTGATGGTCAGCTAAAGCTCG` .
Output: -0.3
